- target_or_system: EHMT1 (Homo sapiens, UniProt Q9H9B1)
- Sequence (Q9H9B1 whole entry, species assumed): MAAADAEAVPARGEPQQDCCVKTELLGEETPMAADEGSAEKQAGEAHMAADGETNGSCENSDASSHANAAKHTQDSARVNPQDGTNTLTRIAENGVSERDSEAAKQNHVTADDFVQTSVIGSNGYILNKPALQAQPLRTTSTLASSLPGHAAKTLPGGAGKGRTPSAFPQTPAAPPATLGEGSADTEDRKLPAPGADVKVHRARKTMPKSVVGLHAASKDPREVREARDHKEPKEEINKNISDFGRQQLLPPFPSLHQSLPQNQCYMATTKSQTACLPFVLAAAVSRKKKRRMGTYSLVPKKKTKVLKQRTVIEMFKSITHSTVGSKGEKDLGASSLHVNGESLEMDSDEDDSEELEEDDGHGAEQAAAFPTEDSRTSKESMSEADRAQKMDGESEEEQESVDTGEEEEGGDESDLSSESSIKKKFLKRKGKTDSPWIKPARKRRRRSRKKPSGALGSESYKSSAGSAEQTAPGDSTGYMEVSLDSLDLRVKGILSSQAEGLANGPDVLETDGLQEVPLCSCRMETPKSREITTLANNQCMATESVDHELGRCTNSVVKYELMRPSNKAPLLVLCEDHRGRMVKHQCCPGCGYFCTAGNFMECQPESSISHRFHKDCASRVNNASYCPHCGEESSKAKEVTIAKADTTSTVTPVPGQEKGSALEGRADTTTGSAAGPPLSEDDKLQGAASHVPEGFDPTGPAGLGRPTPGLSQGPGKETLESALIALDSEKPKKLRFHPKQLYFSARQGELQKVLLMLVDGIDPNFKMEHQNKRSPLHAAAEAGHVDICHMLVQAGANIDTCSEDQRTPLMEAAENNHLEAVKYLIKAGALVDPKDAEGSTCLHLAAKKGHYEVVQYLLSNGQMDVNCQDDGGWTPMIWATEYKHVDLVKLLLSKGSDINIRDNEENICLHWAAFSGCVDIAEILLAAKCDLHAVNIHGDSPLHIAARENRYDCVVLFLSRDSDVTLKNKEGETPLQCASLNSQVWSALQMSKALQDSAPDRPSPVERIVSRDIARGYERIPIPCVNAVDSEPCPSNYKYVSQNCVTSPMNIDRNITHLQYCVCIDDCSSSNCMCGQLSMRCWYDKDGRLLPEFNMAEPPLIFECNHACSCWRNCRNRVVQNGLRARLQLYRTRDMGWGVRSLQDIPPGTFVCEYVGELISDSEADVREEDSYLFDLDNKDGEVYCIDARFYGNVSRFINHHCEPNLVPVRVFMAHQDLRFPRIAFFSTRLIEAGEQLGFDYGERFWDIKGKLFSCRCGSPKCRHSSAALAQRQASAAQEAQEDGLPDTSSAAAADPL
- protocol: EHMT1 enzyme assay on peptide substrate (EHMT1 PEP)
- Type: biochemical
- assay_context: Table III; read-out: EHMT1 PEP (IC50 μM)

# smiles_structure, IC50
rows = [
    ("CNc1ccnc(Nc2ccc(OC)c(COCCN3CCCC3)c2)n1", "0.1 to 1 µM"),
    ("COc1ccc(OCCCN2CCCC2)cc1Nc1nccc(NCC2CCOCC2)n1", "> 10 µM"),
    ("COc1ccc(Nc2cnnc(NCC3CCN(C(C)=O)CC3)c2)cc1OCCCN1CCCC1", "1 to 10 µM"),
    ("CNc1ccnc(Nc2ccc(OC)c(OCc3noc(C4CC4)n3)c2)n1", "1 to 10 µM"),
    ("CNc1ccnc(Nc2ccc(OC)c(OCCCN(C)CC3CC3)c2)n1", "1 to 10 µM"),
]
